These measurements were taken from ChEMBL document CHEMBL4261593.

- System: Bacillus subtilis
- Test name: Antibacterial activity against penicillin-susceptible Bacillus subtilis ATCC 9372 after 24 hrs by broth dilution assay
- Assay type: functional
- Condition description: ATCC 9372, 24 h
Measured property: MIC

{"columns": ["Substance smiles", "Measured property", "Experimental result"],
 "data": [
  ["CC[C@H]1OC(=O)[C@H](C)[C@@H](OC(=O)NCc2ccc(OC)cc2)[C@H](C)[C@@H](O[C@@H]2O[C@H](C)C[C@H](N(C)C)[C@H]2O)[C@](C)(OC)C[C@@H](C)/C(=N/OCc2ccccc2Cl)[C@H](C)[C@@H](O)[C@]1(C)O", "MIC", "4 µg/mL"],
  ["CC[C@H]1OC(=O)[C@H](C)[C@@H](OC(=O)NCCc2ccccc2Cl)[C@H](C)[C@@H](O[C@@H]2O[C@H](C)C[C@H](N(C)C)[C@H]2O)[C@](C)(OC)C[C@@H](C)/C(=N/OCc2ccccc2Cl)[C@H](C)[C@@H](O)[C@]1(C)O", "MIC", "2 µg/mL"],
  ["CC[C@H]1OC(=O)[C@H](C)[C@@H](OC(=O)NCCc2cccc(OC)c2)[C@H](C)[C@@H](O[C@@H]2O[C@H](C)C[C@H](N(C)C)[C@H]2O)[C@](C)(OC)C[C@@H](C)/C(=N/OCc2ccccc2Cl)[C@H](C)[C@@H](O)[C@]1(C)O", "MIC", "4 µg/mL"],
  ["CC[C@H]1OC(=O)[C@H](C)[C@@H](OC(=O)NCc2ccc(F)cc2)[C@H](C)[C@@H](O[C@@H]2O[C@H](C)C[C@H](N(C)C)[C@H]2O)[C@](C)(OC)C[C@@H](C)/C(=N/OCc2ccccc2Cl)[C@H](C)[C@@H](O)[C@]1(C)O", "MIC", "2 µg/mL"],
  ["CC[C@H]1OC(=O)[C@H](C)[C@@H](OC(=O)NC2CCCC2)[C@H](C)[C@@H](O[C@@H]2O[C@H](C)C[C@H](N(C)C)[C@H]2O)[C@](C)(OC)C[C@@H](C)/C(=N/OCc2ccccc2Cl)[C@H](C)[C@@H](O)[C@]1(C)O", "MIC", "4 µg/mL"],
  ["CC[C@H]1OC(=O)[C@H](C)[C@@H](O[C@H]2C[C@@](C)(OC)[C@@H](O)[C@H](C)O2)[C@H](C)[C@@H](O[C@@H]2O[C@H](C)C[C@H](N(C)C)[C@H]2O)[C@](C)(OC)C[C@@H](C)C(=O)[C@H](C)[C@@H](O)[C@]1(C)O", "MIC", "0.25 µg/mL"],
  ["CC[C@H]1OC(=O)[C@H](C)[C@@H](O)[C@H](C)[C@@H](O[C@@H]2O[C@H](C)C[C@H](N(C)C)[C@H]2O)[C@](C)(OC)C[C@@H](C)/C(=N/OCc2ccccc2Cl)[C@H](C)[C@@H](O)[C@]1(C)O", "MIC", "16 µg/mL"],
  ["CC[C@H]1OC(=O)[C@H](C)[C@@H](OC(=O)NCCc2ccccc2)[C@H](C)[C@@H](O[C@@H]2O[C@H](C)C[C@H](N(C)C)[C@H]2O)[C@](C)(OC)C[C@@H](C)/C(=N/OCc2ccccc2Cl)[C@H](C)[C@@H](O)[C@]1(C)O", "MIC", "8 µg/mL"]
]}

stdin: Entry CCCCNC(=O)O[C@H]1[C@H](C)[C@@H](O[C@@H]2O[C@H](C)C[C@H](N(C)C)[C@H]2O)[C@](C)(OC)C[C@@H](C)/C(=N/OCc2ccccc2Cl)[C@H](C)[C@@H](O)[C@](C)(O)[C@@H](CC)OC(=O)[C@@H]1C : reported MIC = ?
stdout: 2 µg/mL
